protocol_text: in vitro
measurement_setup: dog, hepatocytes
Entries and their half-life at 0.5 μM values follow.
measurement_type: half-life at 0.5 μM (min)

[[record]]
molecule = "CCCCCCCCCCCCCCCC(=O)OCC(CSC[C@H](N)C(=O)N[C@@H](CO)C(=O)NCCOCCOCCOCCOCCOCCOCCOCCOCCOCCOCCOCCOCCOCCOCCOCCOCCOCCOCCOCCOCCOCCOCCOCCOCCOCCOCCOCCOCCC(=O)NCC(N)=O)OC(=O)CCCCCCCCCCCCCCC (some centres unmarked) [INNA-011]"
relation_sign = "="
numeric_readout = 284

[[record]]
molecule = "CCC(=O)OCC(CSCC(N)C(=O)NC(CO)C(=O)NCCOCC(=O)NCC(N)=O)OC(=O)CC (stereo not drawn) [INNA-006, Pam2Cys-Ser-PEG]"
relation_sign = ">"
numeric_readout = 375


----------
protocol_text: in vitro
measurement_setup: rat, plasma
measurement_type: half-life (h)

[[record]]
compound = "CCCCCCCCCCCCCCCC(=O)OCC(CSC[C@H](N)C(=O)N[C@@H](CO)C(=O)NCCOCCOCCOCCOCCOCCOCCOCCOCCOCCOCCOCCOCCOCCOCCOCCOCCOCCOCCOCCOCCOCCOCCOCCOCCOCCOCCOCCOCCC(=O)NCC(N)=O)OC(=O)CCCCCCCCCCCCCCC (stereo partly shown)"
numeric_readout = 5.9


----------
Entries and their hepatocyte CLint at 0.5 μM values follow.
protocol_text: in vitro
measurement_setup: human, hepatocytes
measurement_type: hepatocyte CLint at 0.5 μM

[[record]]
compound = "CCC(=O)OCC(CSCC(N)C(=O)NC(CO)C(=O)NCCOCC(=O)NCC(N)=O)OC(=O)CC (stereo not drawn) [INNA-006, Pam2Cys-Ser-PEG]"
result = "< 2 µL/min/1e6 cells"

[[record]]
compound = "CCCCCCCCCCCCCCCC(=O)OCC(CSC[C@H](N)C(=O)N[C@@H](CO)C(=O)NCCOCCOCCOCCOCCOCCOCCOCCOCCOCCOCCOCCOCCOCCOCCOCCOCCOCCOCCOCCOCCOCCOCCOCCOCCOCCOCCOCCOCCC(=O)NCC(N)=O)OC(=O)CCCCCCCCCCCCCCC (some centres unmarked) [INNA-011]"
result = "≤ 2 µL/min/1e6 cells"


----------
protocol_text: in vitro
measurement_setup: cynomolgus monkey, hepatocytes
Entries and their hepatocyte CLint at 0.5 μM values follow.
measurement_type: hepatocyte CLint at 0.5 μM

[[record]]
compound = "CCCCCCCCCCCCCCCC(=O)OCC(CSC[C@H](N)C(=O)N[C@@H](CO)C(=O)NCCOCCOCCOCCOCCOCCOCCOCCOCCOCCOCCOCCOCCOCCOCCOCCOCCOCCOCCOCCOCCOCCOCCOCCOCCOCCOCCOCCOCCC(=O)NCC(N)=O)OC(=O)CCCCCCCCCCCCCCC (some centres unmarked)"
measurement_type = "hepatocyte CLint at 0.5 μM"
result = "≤ 2 µL/min/1e6 cells"

[[record]]
compound = "CCC(=O)OCC(CSCC(N)C(=O)NC(CO)C(=O)NCCOCC(=O)NCC(N)=O)OC(=O)CC (centres unmarked)"
measurement_type = "hepatocyte CLint at 0.5 μM"
result = "< 2 µL/min/1e6 cells"


----------
protocol_text: in vitro
measurement_setup: cynomolgus monkey, hepatocytes
measurement_type: half-life at 0.5 μM (h)

[[record]]
molecule = "CCC(=O)OCC(CSCC(N)C(=O)NC(CO)C(=O)NCCOCC(=O)NCC(N)=O)OC(=O)CC (centres unmarked)"
measurement_type = "half-life at 0.5 μM"
relation_sign = ">"
numeric_readout = 6.25

[[record]]
molecule = "CCCCCCCCCCCCCCCC(=O)OCC(CSC[C@H](N)C(=O)N[C@@H](CO)C(=O)NCCOCCOCCOCCOCCOCCOCCOCCOCCOCCOCCOCCOCCOCCOCCOCCOCCOCCOCCOCCOCCOCCOCCOCCOCCOCCOCCOCCOCCC(=O)NCC(N)=O)OC(=O)CCCCCCCCCCCCCCC (some centres unmarked)"
measurement_type = "half-life at 0.5 μM"
relation_sign = "="
numeric_readout = 2.88


----------
protocol_text: in vitro
measurement_setup: dog, dog plasma
measurement_type: half-life (min)

[[record]]
compound = "CCC(=O)OCC(CSCC(N)C(=O)NC(CO)C(=O)NCCOCC(=O)NCC(N)=O)OC(=O)CC (stereo not drawn) [INNA-006, Pam2Cys-Ser-PEG]"
numeric_readout = 534


----------
protocol_text: in vitro
measurement_setup: rat, hepatocytes
measurement_type: hepatocyte CLint at 0.5 μM

[[record]]
compound = "CCCCCCCCCCCCCCCC(=O)OCC(CSC[C@H](N)C(=O)N[C@@H](CO)C(=O)NCCOCCOCCOCCOCCOCCOCCOCCOCCOCCOCCOCCOCCOCCOCCOCCOCCOCCOCCOCCOCCOCCOCCOCCOCCOCCOCCOCCOCCC(=O)NCC(N)=O)OC(=O)CCCCCCCCCCCCCCC (some centres unmarked)"
result = "≤ 2 µL/min/1e6 cells"

[[record]]
compound = "CCC(=O)OCC(CSCC(N)C(=O)NC(CO)C(=O)NCCOCC(=O)NCC(N)=O)OC(=O)CC (centres unmarked)"
result = "< 2 µL/min/1e6 cells"

